# TEST_TARGET: T1, human epidermal growth factor receptor (EGFR) (human, UniProt P00533 25-1210)
# T1 construct: whole, on cells; also called HER-1; ErbB1
# ASSAY_SUMMARY: flow cytometry on A431 cells
REPORTED_PROPERTY: binding result

humanized ICR62 antibody I-HHB/I-KC (not glycoengineered) (antibody, V domains shown, also called I-HHB/KC) VH: QVQLVQSGAEVKKPGSSVKVSCKGSGFTFTDYKIHWVRQAPGQGLEWMGYFNPNSGYSTYAQKFQGRVTITADKSTSTAYMELSSLRSEDTAVYYCARLSPGGYYVMDAWGQGTTVTVSS VL: DIQMTQSPSSLSASVGDRVTITCRASQGINNYLNWYQQKPGKAPKRLIYNTNNLQTGVPSRFSGSGSGTEFTLTISSLQPEDFATYYCLQHNSFPTFGQGTKLEIKR	binds
humanized ICR62 antibody I-HHG/I-KC (antibody, human IgG1, V domains shown) VH: QVQLVQSGAEVKKPGSSVKVSCKGSGFTFTDYKIHWVRQAPGQGLEWMGYFNPNSGYATYAQKFQGRVTITADKSTSTAYMELSSLRSEDTAVYYCARLSPGGYYVMDAWGQGTTVTVSS VL: DIQMTQSPSSLSASVGDRVTITCRASQGINNYLNWYQQKPGKAPKRLIYNTNNLQTGVPSRFSGSGSGTEFTLTISSLQPEDFATYYCLQHNSFPTFGQGTKLEIKR	binds
humanized ICR62 antibody I-HLA9/I-KC (antibody, human IgG1, V domains shown) VH: EVQLVQSGAEVKKPGESLKISCKGSGYSFTDYKIHWVRQAPGQGLEWMGYFNPNSGYSTYAQKFQGRVTITADKSTSTAYMELSSLRSEDTAVYYCARLSPGGYYVMDAWGQGTTVTVSS VL: DIQMTQSPSSLSASVGDRVTITCRASQGINNYLNWYQQKPGKAPKRLIYNTNNLQTGVPSRFSGSGSGTEFTLTISSLQPEDFATYYCLQHNSFPTFGQGTKLEIKR	binds
